B1: library; numbered along this chain (parent)
chain: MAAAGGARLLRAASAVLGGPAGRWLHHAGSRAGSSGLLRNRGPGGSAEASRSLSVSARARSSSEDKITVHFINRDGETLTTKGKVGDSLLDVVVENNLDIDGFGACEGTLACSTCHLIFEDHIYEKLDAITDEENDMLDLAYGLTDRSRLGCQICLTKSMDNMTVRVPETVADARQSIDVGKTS

variants of: B1; test: scaled log2 fold change in cell abundance, elesclomol vs control (0 = silent mean, 1 = nonsense mean) (scaled log2 ratio); higher = higher viability under elesclomol (loss of FDX1 cuproptosis function); conditions: with HEK293T FDX1 KO; elesclomol 40 nM; glucose 10 mM; 11 days;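 also: variant abundance is its share of total variant reads in each endpoint sample, from next-generation sequencing of the integrated ORF PCR-amplified out of genomic DNA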
QUANTITY KIND: scaled log2 fold change
Hey, just send me the number, nothing else.

M160D    0.103
T78A    -1.2
G18F    0.79
R41V    -0.0931

Q: Identify measured scaled log2 fold change corresponding to K182Q
A: -0.145

Q: Read off the recorded scaled log2 fold change for H70M
A: 0.0916

Q: Given the variant E169S , write its reported scaled log2 fold change.
A: -0.0914

Q: Tell us which scaled log2 fold change value is on record for L156C
A: 0.332

Q: Identify the reported scaled log2 fold change for the following entry. I123M
A: 0.00397

Q: Specify measured scaled log2 fold change for V171F .
A: -0.419

Q: Using known records, supply scaled log2 fold change for G104F
A: 0.268

Q: Give scaled log2 fold change for the following variant: C155P
A: 0.21

Q: Given K66H , respond with its scaled log2 fold change.
A: -0.795

Q: Give the value of scaled log2 fold change reported for the following: S54V
A: -1.29

Q: Give reported scaled log2 fold change value for T114V
A: 0.208
